study_target: Hydroxycarboxylic acid receptor 3 (Homo sapiens, UniProt P49019)
Sequence (P49019 whole entry): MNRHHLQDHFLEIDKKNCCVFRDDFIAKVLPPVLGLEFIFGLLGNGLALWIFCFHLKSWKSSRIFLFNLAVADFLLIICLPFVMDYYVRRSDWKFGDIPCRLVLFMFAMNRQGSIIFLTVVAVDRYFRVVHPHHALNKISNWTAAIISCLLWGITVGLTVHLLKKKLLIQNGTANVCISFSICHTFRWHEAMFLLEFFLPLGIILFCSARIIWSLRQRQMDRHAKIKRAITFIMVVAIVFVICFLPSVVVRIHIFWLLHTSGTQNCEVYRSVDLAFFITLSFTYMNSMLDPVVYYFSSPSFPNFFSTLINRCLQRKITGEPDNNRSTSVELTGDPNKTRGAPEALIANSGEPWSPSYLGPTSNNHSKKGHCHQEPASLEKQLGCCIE
experimental_details: Agonist activity at human GPR109b receptor transfected in CHOK1 cells assessed as reversal of forskolin-induced cAMP elevating effect by whole cell assay
// reported pEC50 per item
Remember, pEC50 is on a log scale: it is -log10 of the molar concentration.

CCCCNc1ccc(C(=O)O)cc1[N+](=O)[O-]	6.80
CNc1ccc(C(=O)O)cc1[N+](=O)[O-]	5.72
CC(C)CNc1ccc(C(=O)O)cn1	5.97
O=C(O)c1ccc(NC2CC2)nc1	6.49
CCCCCNc1ccc(C(=O)O)cn1	6.82
C=CCNc1ccc(C(=O)O)cn1	7.15
CCC(CC)Nc1ccc(C(=O)O)cc1[N+](=O)[O-]	7.24
CCNc1ccc(C(=O)O)cn1	6.40

# pEC50 lookup, item C=CCNc1ccc(C(=O)O)cc1[N+](=O)[O-]
7.00

Record: CC(C)Nc1ccc(C(=O)O)cc1[N+](=O)[O-]
6.59

* * *

study_target: Hydroxycarboxylic acid receptor 3 (Homo sapiens, UniProt P49019)
experimental_details: Agonist activity at human GPR109b receptor transfected in CHOK1 cells assessed as reversal of forskolin-induced cAMP elevating effect by whole cell assay
Response field label: string, one of true (EC50 strictly below 200 nM) or false.

Check out these entries, answers already filled in.
O=C(O)c1ccc(Nc2ccccc2)c([N+](=O)[O-])c1	false
O=C(O)c1ccc(NC2CC2)c([N+](=O)[O-])c1	false
O=C(O)c1ccc(NC2CCC2)nc1	true
CCCCNc1ccc(C(=O)O)cn1	true
O=C(O)c1ccc(NC(=O)c2ccccc2)c([N+](=O)[O-])c1	false

Determine whether this compound shows EC50 lower than 200 nM (ties excluded): CC(C)C(C)Nc1ccc(C(=O)O)cn1 (stereo not drawn)
false

Field entry: CNc1ccc(C(=O)O)cn1
false

// next record CCCNc1ccc(C(=O)O)cn1
true

Then what about the compound COCC(C)Nc1ccc(C(=O)O)cc1[N+](=O)[O-] (stereo not drawn) ?
false

Again, but for CCN(CC)c1ccc(C(=O)O)cc1[N+](=O)[O-]
false

Moving on to the next compound: CCCCCNc1ccc(C(=O)O)cc1[N+](=O)[O-]
false

Also CCC(C)Nc1ccc(C(=O)O)cn1 (stereo not drawn) , if possible.
false

And for CCCN(C)c1ccc(C(=O)O)cc1[N+](=O)[O-] ?
true

Cool, now CCCN(CCC)c1ccc(C(=O)O)cn1
false

* * *

study_target: Hydroxycarboxylic acid receptor 2 (Homo sapiens)
Sequence (Q8TDS4 whole entry): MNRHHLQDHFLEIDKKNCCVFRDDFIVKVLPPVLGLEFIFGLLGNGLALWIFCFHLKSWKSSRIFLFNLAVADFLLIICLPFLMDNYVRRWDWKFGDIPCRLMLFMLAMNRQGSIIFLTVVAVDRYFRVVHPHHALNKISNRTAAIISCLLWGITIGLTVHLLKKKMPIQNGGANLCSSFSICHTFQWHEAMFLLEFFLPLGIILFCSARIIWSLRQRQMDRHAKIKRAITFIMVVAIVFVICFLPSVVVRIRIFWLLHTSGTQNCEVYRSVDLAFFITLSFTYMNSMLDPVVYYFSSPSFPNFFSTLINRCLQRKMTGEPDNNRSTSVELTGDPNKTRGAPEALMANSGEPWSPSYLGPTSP
experimental_details: Agonist activity at human GPR109a receptor transfected in CHOK1 cells assessed as reversal of forskolin induced cAMP elevating effect by whole cell assay
observable: pEC50
Keep it numeric: pEC50 is minus log10 of the concentration in mol/L.

CCC(CC)Nc1ccc(C(=O)O)cn1	4.70

I am curious: what pEC50 value has been reported for CC(C)CNc1ccc(C(=O)O)cn1 ?
4.46

* * *

study_target: Hydroxycarboxylic acid receptor 3 (Homo sapiens, UniProt P49019)
experimental_details: Agonist activity at human GPR109b receptor transfected in CHOK1 cells assessed as reversal of forskolin-induced cAMP elevating effect by whole cell assay
observable: EC50 (nM)
Give a bare numeral; the unit nM is implied.

O=C(O)c1ccc(NC(=O)c2ccccc2)nc1	1580

Form entry - test system: Hydroxycarboxylic acid receptor 3 (Homo sapiens, UniProt P49019); read-out: EC50; compound: COCCNc1ccc(C(=O)O)cn1
933

Field entry: COCCNc1ccc(C(=O)O)cc1[N+](=O)[O-]
589

Moving on to the next compound: O=C(O)c1ccc(NCC2CCCO2)nc1 (stereo not drawn)
603

Lookup CCC(CC)Nc1ccc(C(=O)O)cn1
269

Now give it for O=C(O)c1ccc(NC2CCCC2)nc1 too.
389

Hey, just so you know, these numbers are from ChEMBL document CHEMBL1137621.
